Cited source for all entries: patent US10870660B2

Answer each item with its documented pKi.
- Target system: human recombinant dopamine D3 receptor (Homo sapiens (Human))
- Sequence (P35462 whole entry): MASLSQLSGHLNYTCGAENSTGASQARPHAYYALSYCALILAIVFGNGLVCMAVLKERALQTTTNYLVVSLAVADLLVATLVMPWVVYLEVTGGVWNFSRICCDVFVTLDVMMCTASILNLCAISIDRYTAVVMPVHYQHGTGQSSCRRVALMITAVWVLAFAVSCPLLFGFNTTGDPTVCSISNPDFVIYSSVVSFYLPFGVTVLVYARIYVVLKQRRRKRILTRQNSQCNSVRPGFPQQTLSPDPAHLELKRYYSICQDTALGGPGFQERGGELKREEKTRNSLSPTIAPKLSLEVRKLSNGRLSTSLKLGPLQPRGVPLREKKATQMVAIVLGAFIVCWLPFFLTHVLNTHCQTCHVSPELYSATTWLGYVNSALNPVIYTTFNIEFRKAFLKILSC
- Procedure summary: Test of binding inhibition for the human dopamine D3 receptor ([3H]-Metylspiperone SPA binding)
- Assay setup: [3H]-Metylspiperone 2 nM, Jump-In HEK cell membranes, read-out: hD3_Ki
Scale: negative log10 of molar concentration, which is what pKi denotes.

Asked: Please look up its pKi: O=C(CCC(F)(F)F)N[C@H]1CC[C@H](CCN2CCc3nc(CCC(F)(F)F)sc3CC2)CC1
Given back: 8.57

Asked: Please look up its pKi: Cc1cnc(CC(=O)N[C@H]2CC[C@H](CCN3CCc4nc(OCC(F)(F)F)sc4CC3)OC2)o1
Given back: 9.11

Asked: Please look up its pKi: Cn1cc2c(C(=O)N[C@H]3CC[C@H](CCN4CCc5ccc(OCC(F)(F)F)nc5CC4)OC3)cccc2n1
Given back: 10.23

Asked: Please look up its pKi: CC(F)(F)COc1nc2c(s1)CCN(CC[C@H]1CC[C@H](NS(=O)(=O)c3cccc(F)c3)CC1)C2
Given back: 9.36

Asked: Please look up its pKi: Cc1ncc(CC(=O)N[C@H]2CC[C@H](CCN3CCc4sc(OCC(F)F)nc4C3)CC2)s1
Given back: 9.09

Asked: Please look up its pKi: Cn1cc2ccc(C(=O)N[C@H]3CC[C@H](CCN4CCc5nc(OCC(F)F)sc5CC4)CC3)cc2n1
Given back: 9.22

Asked: Please look up its pKi: Cn1cc2c(C(=O)N[C@H]3CC[C@H](CCN4CCc5sc(OCC(C)(F)F)nc5C4)CC3)ccc(F)c2n1
Given back: 9.70

* * *

Answer each item with its documented Ki.
- Target system: human recombinant dopamine D3 receptor (Homo sapiens (Human))
- Procedure summary: Test of binding inhibition for the human dopamine D3 receptor ([3H]-Metylspiperone SPA binding)
- Assay setup: [3H]-Metylspiperone 2 nM, Jump-In HEK cell membranes, read-out: hD3_Ki
Lab book: enter the figure in nM, no units written.

Asked: Please look up its Ki: Cc1cnc(CC(=O)N[C@H]2CC[C@H](CCN3CCc4ccc(OCC(F)(F)F)nc4CC3)OC2)o1
Given back: 0.77

Asked: Please look up its Ki: O=C(N[C@H]1CC[C@H](CCN2CCc3sc(C4=CCOCC4)nc3C2)CC1)c1cccc2ncccc12
Given back: 11

Asked: Please look up its Ki: Cn1cc2c(C(=O)N[C@H]3CC[C@H](CCN4CCc5sc(OCC(F)(F)F)nc5C4)CC3)cccc2n1
Given back: 0.37

Asked: Please look up its Ki: Cc1ncc(CC(=O)N[C@H]2CC[C@H](CCN3CCc4nc(OCC(C)(C)F)sc4CC3)CC2)s1
Given back: 0.52

Asked: Please look up its Ki: Cn1cc2c(C(=O)N[C@H]3CC[C@H](CCN4CCc5sc(CCC(F)(F)F)nc5C4)CC3)cccc2n1
Given back: 0.29

Asked: Please look up its Ki: Cc1ncc(CC(=O)N[C@H]2CC[C@H](CCN3CCc4sc(OCC(C)(F)F)nc4C3)CC2)o1
Given back: 0.48

Asked: Please look up its Ki: Cn1cc(CC(=O)N[C@H]2CC[C@H](CCN3CCc4sc(COC(F)(F)F)nc4C3)CC2)cn1
Given back: 1.2

Asked: Please look up its Ki: Cc1ncc(CC(=O)N[C@H]2CC[C@](F)(CCN3CCc4nc(OCC(F)(F)F)sc4CC3)CC2)o1
Given back: 0.22

Asked: Please look up its Ki: Cn1cc(OCC(=O)N[C@H]2CC[C@H](CCN3CCc4sc(OCC(C)(F)F)nc4C3)CC2)cn1
Given back: 0.32

Asked: Please look up its Ki: Cc1ncc(OCC(=O)N[C@H]2CC[C@](F)(CCN3CCc4nc(OCC(F)(F)F)sc4CC3)CC2)cn1
Given back: 0.43

Asked: Please look up its Ki: Cn1cc(CC(=O)N[C@H]2CC[C@H](CCN3CCc4sc(OCC(C)(F)F)nc4C3)CC2)c(F)n1
Given back: 0.64

Asked: Please look up its Ki: Cc1cc(CC(=O)N[C@H]2CC[C@H](CCN3CCc4nc(OCC(F)(F)F)sc4CC3)OC2)on1
Given back: 0.47

Asked: Please look up its Ki: Cc1cc2c(C(=O)N[C@H]3CC[C@H](CCN4CCc5nc(OCC(F)(F)F)sc5CC4)OC3)cccn2n1
Given back: 0.4

Asked: Please look up its Ki: Cn1cc2c(C(=O)N[C@H]3CC[C@H](CCN4CCc5nc(OC6CC(F)(F)C6)sc5CC4)CC3)cccc2n1
Given back: 0.24

Asked: Please look up its Ki: Cc1cc(CC(=O)N[C@H]2CC[C@H](CCN3CCc4nc(OCC(F)F)sc4CC3)CC2)no1
Given back: 0.82
